# System: Scirpus joncoides
# assay_procedure: Test Example 1: herbicidal effects, paddy-field pot test
# Type: in vivo
# details: chemical dosage 10 g/a; wettable powder applied 3 days after transplanting; judged after 25 days
Record form. Attribute: Herbicidal effects Scirpus joncoides. Fill in for each entry.

Below are worked cases with known answers.
structure | assayed_target | reported_value
CC(C)(C)c1cccc(C2CC2)c1Oc1nnc(Cl)cc1O | Scirpus joncoides | 3 (Growth inhibition rate; 51 to 70%)
CCc1ccc2c(c1Oc1nnc(Cl)cc1O)CCC2 | Scirpus joncoides | 5 (Growth inhibition rate; 91 to 100%)
Cc1cc(C)c(Br)c(Oc2nnc(Cl)cc2O)c1 | Scirpus joncoides | 4 (Growth inhibition rate; 71 to 90%)
O=C(Oc1cc(Cl)nnc1Oc1ccccc1C1CC1)C1CC1 | Scirpus joncoides | 5 (Growth inhibition rate; 91 to 100%)

-- ask Recall and state the measured Herbicidal effects Scirpus joncoides for "Cc1ccc2c(c1Oc1nnc(Cl)cc1O)OCC2" .
-- reply 4 (Growth inhibition rate; 71 to 90%)

###

# Test system: transplanted paddy-field rice
# assay_procedure: Test Example 1: crop injury against transplanted paddy-field rice
# Assay type: in vivo
# details: chemical dosage 25 g/a; wettable powder applied 3 days after transplanting; judged after 25 days
endpoint_label: Crop injury against transplanted rice

structure | Crop injury against transplanted rice
CSc1ccccc1Oc1nnc(Cl)cc1O | 0 (Growth inhibition rate; 0 to 10%)
Cc1cc(C)c(Oc2nnc(Cl)cc2O)c(C)c1 | 1 (Growth inhibition rate; 11 to 30%)

Then this molecule:
-- ask Read the entry "Cc1ccc(Cl)c(Oc2nnc(Cl)cc2O)c1" and write its reported Crop injury against transplanted rice.
-- reply 0 (Growth inhibition rate; 0 to 10%)

###

Could you please report measured Crop injury against transplanted rice for the items listed next?
# Tested on: transplanted paddy-field rice
# assay_procedure: Test Example 1: crop injury against transplanted paddy-field rice
# Format: in vivo
# details: chemical dosage 12.5 g/a; wettable powder applied 3 days after transplanting; judged after 25 days

molecule | endpoint_label | reported_value
CC(C)(C)c1ccccc1Oc1nnc(Cl)cc1O [Example 61] | Crop injury against transplanted rice | 0 (Growth inhibition rate; 0 to 10%)
Cc1ccc(C)c(Oc2nnc(Cl)cc2O)c1 [Example 205] | Crop injury against transplanted rice | 0 (Growth inhibition rate; 0 to 10%)
Cc1cc(C)c(C)c(Oc2nnc(Cl)cc2O)c1C [Example 320] | Crop injury against transplanted rice | 0 (Growth inhibition rate; 0 to 10%)

Could I get Crop injury against transplanted rice for every one of these entries?
1. CCCc1cccc(F)c1Oc1nnc(Cl)cc1O [Example 234]
2. Cc1ccc(Cl)c(Oc2nnc(Cl)cc2O)c1 [Example 203]
3. CCc1cccc(CC)c1Oc1nnc(Cl)cc1O [Example 268]
4. CC(C)c1cccc(Br)c1Oc1nnc(Cl)cc1O [Example 19]

-- reply
0 (Growth inhibition rate; 0 to 10%)
0 (Growth inhibition rate; 0 to 10%)
1 (Growth inhibition rate; 11 to 30%)
1 (Growth inhibition rate; 11 to 30%)

###

I'd appreciate it if you could supply melting point values for the items below.

Known results for compounds:
compound | endpoint_label | reported_value
Cc1cccc(C2CC2)c1Oc1nnc(Cl)cc1OC(=O)CC(C)C | melting point | 71 to 74 °C
CCCc1cccc(CCC)c1Oc1nnc(Cl)cc1O | melting point | 191 to 193 °C
CN(C)S(=O)(=O)n1ccc(-c2ccccc2Oc2nnc(Cl)cc2O)n1 | melting point | 210 to 212 °C
Cc1cccc(C2CC2)c1Oc1nnc(Cl)cc1OC(=O)C(C)(C)CCl | melting point | 112 to 115 °C
CCN(CC)C(=O)Oc1cc(Cl)nnc1Oc1c(C)cccc1C1CC1 | melting point | 119 to 121 °C

Give measured melting point for every item shown.
1. CCCCCc1ccccc1Oc1nnc(Cl)cc1O
2. Cc1cccc(I)c1Oc1nnc(Cl)cc1O
3. Oc1cc(Cl)nnc1Oc1ccccc1C1CC1(F)Cl (centres unmarked)
4. Cc1ccccc1Oc1nnc(Br)cc1O
5. COc1ccc(C#N)cc1Oc1nnc(Cl)cc1O

-- reply
1: 151.5 to 152.5 °C; 2: 250 to 252 °C; 3: 175 to 177 °C; 4: 197 to 198 °C; 5: 187 to 192 °C
